# system_under_test: c-Src SH2;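 also: peptide library displayed on the E. coli surface as eCPX fusions, selected cells deep-sequenced, score is each peptide's frequency after selection divided by its frequency in the input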
# assay_method_text: SH2 binding enrichment of the phosphorylated peptide, bacterial display (enrichment ratio); higher = better substrate or ligand; peptides without Tyr show the background
measured_property: SH2 binding enrichment

Please review the following examples before continuing.
>  <sequence_string>
FSIDHYLGKEM [G6PD_Y202_R198S_YF]

>  <SH2 binding enrichment>
0.643

$$$$
>  <sequence_string>
PEVSGYCHFAD [TG_Y234_C237Y_YF]

>  <SH2 binding enrichment>
1.32

$$$$
>  <sequence_string>
ALPVFYAATIA [SLC20A2_Y187]

>  <SH2 binding enrichment>
0.669

$$$$
>  <sequence_string>
ALAHKHHGGGG [HBB_Y146_Y146H]

>  <SH2 binding enrichment>
0.586

$$$$
>  <sequence_string>
ADTETYLLEKS [MYH7_Y266_I263T]

>  <SH2 binding enrichment>
0.56

$$$$
>  <sequence_string>
GKLIFYDLRGE [KARS1_Y145]

>  <SH2 binding enrichment>
0.688

$$$$
>  <sequence_string>
EKKDIYKAGEQ [CFH_Y1008_V1007I]

>  <SH2 binding enrichment>
0.365

$$$$
>  <sequence_string>
VVFIKYLPEWT [PSEN1_Y240_L235V]

>  <SH2 binding enrichment>
1.04

$$$$

I. AFRHGYFDEEM [PLEC_Y2971_R2969H_YF]
II. LNTFHYAGVSA [POLR2A_Y1109]
III. GIVEDYRPPVF [ACVRL1_Y421_F425V_YF]
**Q:** Write the entries in order, lowest recorded SH2 binding enrichment first. To answer, arrange all of the labels according to the requested order.
**A:** III, I, II

a. AVISVYDLVAF [PSEN1_Y256_V261F]
b. LGNIVYSSLCG [BCOR_Y90_P85L]
**Q:** Returns: the argument ( a or b ) having the larger SH2 binding enrichment. Choose, then provide that item's label.
**A:** a
(a: 0.796, b: 0.551)

====

Reported values of phosphorylation enrichment for individual entries
# system_under_test: Jak2 (UniProt O60674)
# Sequence (O60674 whole entry, looked up): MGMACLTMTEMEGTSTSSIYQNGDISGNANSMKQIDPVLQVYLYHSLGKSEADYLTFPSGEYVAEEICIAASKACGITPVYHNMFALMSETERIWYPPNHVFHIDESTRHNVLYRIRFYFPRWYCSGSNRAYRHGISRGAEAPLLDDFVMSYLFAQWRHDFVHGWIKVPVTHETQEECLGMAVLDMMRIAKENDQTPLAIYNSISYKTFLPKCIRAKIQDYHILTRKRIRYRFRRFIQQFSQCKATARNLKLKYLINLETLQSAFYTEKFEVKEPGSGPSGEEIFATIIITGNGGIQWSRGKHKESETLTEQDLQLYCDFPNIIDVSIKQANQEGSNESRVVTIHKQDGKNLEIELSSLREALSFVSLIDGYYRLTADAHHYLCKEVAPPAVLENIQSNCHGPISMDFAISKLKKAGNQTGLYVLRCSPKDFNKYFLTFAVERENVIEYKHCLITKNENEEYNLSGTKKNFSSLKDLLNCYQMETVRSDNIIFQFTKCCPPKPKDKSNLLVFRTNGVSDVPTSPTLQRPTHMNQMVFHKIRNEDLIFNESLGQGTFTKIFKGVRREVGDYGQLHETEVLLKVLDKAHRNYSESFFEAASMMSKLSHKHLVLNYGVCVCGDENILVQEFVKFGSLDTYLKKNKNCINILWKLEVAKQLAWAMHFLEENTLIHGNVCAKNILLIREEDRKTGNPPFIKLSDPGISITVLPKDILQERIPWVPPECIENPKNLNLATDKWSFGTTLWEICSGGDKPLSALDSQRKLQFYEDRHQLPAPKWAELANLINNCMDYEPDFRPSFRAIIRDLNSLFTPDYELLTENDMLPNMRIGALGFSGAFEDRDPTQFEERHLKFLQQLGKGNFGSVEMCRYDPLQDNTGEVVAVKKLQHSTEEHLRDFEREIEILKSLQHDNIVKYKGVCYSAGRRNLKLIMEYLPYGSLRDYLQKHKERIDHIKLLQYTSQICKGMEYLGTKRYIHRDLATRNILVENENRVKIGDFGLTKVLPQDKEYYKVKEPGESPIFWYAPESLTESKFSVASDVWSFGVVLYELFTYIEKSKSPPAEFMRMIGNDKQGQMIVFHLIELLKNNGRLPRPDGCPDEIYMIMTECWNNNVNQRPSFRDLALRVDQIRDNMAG
# assay_method_text: phosphorylation enrichment, bacterial display (enrichment ratio); higher = better substrate or ligand; peptides without Tyr show the background
Just the number, please.

>  <sequence_string>
IYHLSYIHNCE [PDE6B_Y227_L228I]

>  <endpoint_value>
1.18

$$$$
>  <sequence_string>
EVEPRYVVLFD [ERCC4_Y577_YF]

>  <endpoint_value>
1.11

$$$$
>  <sequence_string>
LGGSPYPGVPV [FGFR1_Y701]

>  <endpoint_value>
0.503

$$$$
>  <sequence_string>
TRFDEYLEVTK [MAP1A_Y2217_H2214Y_YF]

>  <endpoint_value>
1.25

$$$$
>  <sequence_string>
LLILEYAKFGS [RET_Y806_V804L_YF]

>  <endpoint_value>
1.15

$$$$

**Q:** Recorded phosphorylation enrichment of KQLFAYKMLMA [TMC2_Y209_YF] , please.
**A:** 0.773

**Q:** Entry VEKGSYSALLA [ABCC2_Y845] please
**A:** 0.69

**Q:** Entry RFLERDIYNRE [HLA-DPB1_Y57_Y57D] please
**A:** 0.764

**Q:** Entry NGEDLYAGSTD [XRCC1_Y515_P514L] please
**A:** 1.02

**Q:** Entry QRRFVYFFSFL [PTEN_Y176_YF] please
**A:** 1.15

**Q:** Entry GFVEDYRPPFY [ACVRL1_Y421_I417F] please
**A:** 0.969

**Q:** Entry RFVTRSIFNRE [HLA-DQB1_Y62_Y62S_YF] please
**A:** 0.723

**Q:** Entry AAGGRYYGLVG [HARS1_Y363_D364Y] please
**A:** 0.49

**Q:** Entry ALAHKHHGGGG [HBB_Y146_Y146H] please
**A:** 0.558

**Q:** Entry KAPVDYIRKLQ [MITF_Y360_S357P] please
**A:** 0.576

Source listed as the supplement of paper PMC10065799.
